The measured values listed here are drawn from the RNAGym collection of RNA variant scans (doi:10.1101/gr.219683.116).

B1: mRNA-splicing (parent)
chain: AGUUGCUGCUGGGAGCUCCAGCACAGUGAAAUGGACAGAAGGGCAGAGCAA

variants of: B1; test: exon inclusion enrichment index; higher = more inclusion; WT1 exon 5 minigene, HEK293
observable: exon inclusion enrichment index
Number only, please.

Reference set, count: 10
{"columns": ["residue.string", "measured.number"],
 "data": [
  ["AGUUACCACCGGGAGCUCCAGCACAGUGAAAUGGACAGAAGGUGAGAGCAA [G5A U7C G8A U10C G43U C44G]", 0.5],
  ["AGUUGACGACGGGAGGUCCAGCACAGUGAAAUGGACAGAAGGGCAGAGCAA [C6A U7C C9A U10C C16G]", 2.49],
  ["AGUUUCUUUUGGGAGCUCCAGUACAGUGAAAUGGACAGAAGGGCAGAGCAA [G5U G8U C9U C22U]", 0.095],
  ["AGUUUCUUUUGGGAGCUCCAAGACAGUGAAAUGGACAGAAGGGCAGAGCAA [G5U G8U C9U G21A C22G]", 0.143],
  ["AGUUAUAUAUGGGAGCUCCAGCACAGUGAAAUGGAUCGAAGGGCAGAGCAA [G5A C6U U7A G8U C9A C36U A37C]", 0.0296],
  ["AGUUCUUCUCGGGAGCUCCAGCACAGUGAAAUGGACACGAGGGCAGAGCAA [G5C C6U G8C C9U U10C G38C A39G]", 1.77],
  ["AGUUGACGACGGGAGCUCCAGCACGUUGAAAUGGACAGAAGGGCAGAGCAA [C6A U7C C9A U10C A25G G26U]", 4.03],
  ["AGUUGAAGAAGGGAGCUCCAGCACAGUGAAAUGGACAGAAGGGCAAAGCAA [C6A U7A C9A U10A G46A]", 0.993],
  ["AAGUAGGGAUGGGAGCUCCAGCACAGUGAAAUGGACAGAAGGGCAGAGCAA [G2A U3G G5A C6G U7G C9A]", 0.00228],
  ["AGUUAUAUAUCGGAGCUCCAGCACAGUGAAAUGGACAGAAGGGCAGAGCAA [G5A C6U U7A G8U C9A G11C]", 0.191]
]}

Form field: reported exon inclusion enrichment index of AGUUCACACAGGGAGCUCUUGCACAGUGAAAUGGACAGAAGGGCAGAGCAA [G5C C6A U7C G8A U10A C19U A20U]
0.0111

Try the variant AGUUCUUCUCGGGAGCUCCAGCACCGUGAAAUGGACAGAAGGGCAGAGCAA [G5C C6U G8C C9U U10C A25C]
3.42

Then AGUUUCUUUUGGGAGCUCCGUCACAGUGAAAUGGACAGAAGGGCAGAGCAA [G5U G8U C9U A20G G21U] ?
0.195

Also check AGUUAGGGAUGGGAGCUCCAGCACAUUGAAAUGGACAGAAGGGCAGAGCAA [G5A C6G U7G C9A G26U]
0.00112

Moving on to the next variant: AGUUGAAGAAGGGAGCUCCAGCACAGUGAAAUGGAUUGAAGGGCAGAGCAA [C6A U7A C9A U10A C36U A37U]
0.411

Next entry: AGUUCACACAGGGAGCUCCAGCACAGUGACGUGGACAGAAGGGCAGAGCAA [G5C C6A U7C G8A U10A A30C A31G]
0.372

Now the variant AGUUGCUGCUGGGAGCUCCAGCACAGGAAAAUGGACAGAAGGGCAGAGCAA [U27G G28A]
0.354

Entry AGUGGGCGCCGGGAGCUCCAGCACAGUGAAAUGGACAGAAGGGCAGAGCAA [U4G C6G U7C U10C] please
0.838

Input AGUUACCACCGGGAGCUCCAGCACAGUGAAGAGGACAGAAGGGCAGAGCAA [G5A U7C G8A U10C A31G U32A]
4.37

Subsequent entry: AGUUGAAGAAGGGAACUCCAGCACAGUGAAAUGGACAGAAGGGCAGAGCAA [C6A U7A C9A U10A G15A]
0.818

Follow-up item: AGUUCACACAGGGAGCUCCAGCACAGUCGAAUGGACAGAAGGGCAGAGCAA [G5C C6A U7C G8A U10A G28C A29G]
0.241

Same question for AGUUAGGGAUGGGAGCUACAGCACAGUGAAAUGGACAGAAGGGCAGAGCAA [G5A C6G U7G C9A C18A] please.
0.000986
